The entries below come with measured Percent Effect values attached.
measured-on: Sialic acid-binding Ig-like lectin 9 (Homo sapiens)
run-description: Hs-Siglec9 ALPHAscreen SOP 20170721
Parameters: scale not given: direction of the effect not stated beside the values
particulars: 10 µM
result-type: Percent Effect (%)

Cc1cnn(CCC(=O)N2CCN(c3nc(C)cs3)CC2)c1 :: 9.63
CCN(CC)c1ccc(NS(=O)(=O)c2cncc(F)c2)cn1 :: 7.06
CN(CCNC(=O)c1scnc1Cl)c1ccccc1 :: -1.26
COc1c(C)cnc(CN2CCC(C(=O)N(C)C)CC2)c1C :: 10.3
CN(Cc1ccc2c(c1)OCCO2)C(=O)Cn1ccccc1=O :: 1.7
Cc1cccc(CN2CCc3nnc(CN4CCCC4=O)n3CC2)n1 :: 1.97
Cc1oc(-c2ccco2)nc1CC(=O)N1CCC(C(O)C(F)(F)F)CC1 (stereo not given) :: 2.74
CN(Cc1ccc(Cl)s1)C1CCCN(c2cccnn2)C1 (stereo not given) :: 0.257
Cc1cc(C(=O)N2CCC(c3nccn3CCCN(C)C)CC2)no1 :: 3.99
O=C(NC[C@H]1OC[C@@H]2CCN(Cc3ccco3)C[C@@H]21)c1ccsc1 :: 8.5
CCN1CCC2(CCC(=O)N2Cc2cccc(C)n2)CC1 :: -0.0986
CC(=O)c1cccc(NC(=O)CN2CCCCC2C2OCCO2)c1 (stereo not given) :: -1.14
Cc1nc(N2CCCCC2)ncc1C(=O)N1CC(C)(C)[C@@](C)(O)C1 :: 7.93
CCc1noc(C(C)N(C)CC(=O)Nc2c(C)cccc2C)n1 (stereo not given) :: 4.7
COc1cccc(-c2nccnc2C2CCN(C(C)=O)CC2)c1 :: -0.0533
CN(C)S(=O)(=O)N1C[C@@H](Oc2ccccn2)[C@H]2OCCC[C@H]21 :: 3.32
CCc1ncncc1C(=O)N1CCCN(Cc2ccc(C)cc2)CC1 :: -3.26
Cc1nc(C(=O)N2CCc3c(nc(-c4ccncc4)[nH]c3=O)C2)cs1 :: 1.7
COCC1COCCC12CCN(C(=O)CCOc1ccccc1)CC2 (stereo not given) :: -3.94
COc1cccc(C(=O)N2CCCC(c3cc(C)[nH]n3)C2)c1OC (stereo not given) :: -1.79
